Reference source: ChEMBL document CHEMBL3091428

System: Pichia kudriavzevii
Experiment: Antimicrobial activity against Candida krusei ATCC 6258 after 24 hrs by broth microdilution method
Assay type: functional
Conditions: ATCC 6258, 24 h
recordedEndpoint: MIC (µg/mL)
API: value field is a number in µg/mL; no unit string.

Notebook: Cc1ccc(Nn2c(SCC(=O)c3ccc(F)cc3)nc(C)c2C)cc1 , MIC read as 1600

Notebook: COc1ccc(C(=O)CSc2nc(C)c(C)n2Nc2ccc(OO)cc2)cc1 , MIC read as 400

Notebook: Cc1nc(SCC(=O)c2ccc(Cl)cc2)n(Nc2ccc(Cl)cc2)c1C , MIC read as 400

Notebook: Cc1nc(SCC(=O)c2cccc(Cl)c2)n(Nc2ccc(Cl)cc2)c1C , MIC read as 800

Notebook: COc1cccc(C(=O)CSc2nc(C)c(C)n2Nc2ccc(C)cc2)c1 , MIC read as 200

Notebook: Cc1nc(SCC(=O)c2ccc(F)c(F)c2)n(Nc2ccccc2)c1C , MIC read as 200

Notebook: COc1ccc(Nn2c(SCC(=O)c3ccc(Cl)c(Cl)c3)nc(C)c2C)cc1 , MIC read as 800

Notebook: COc1ccc(C(=O)CSc2nc(C)c(C)n2Nc2ccc(Cl)cc2)cc1 , MIC read as 200

Notebook: Cc1nc(SCC(=O)c2ccc(Cl)cc2)n(Nc2ccccc2)c1C , MIC read as 200

Notebook: Cc1nc(SCC(=O)c2cccc(F)c2)n(Nc2ccc(Cl)cc2)c1C , MIC read as 400

Notebook: Cc1nc(SCC(=O)c2ccc(Cl)c(Cl)c2)n(Nc2ccc(Cl)cc2)c1C , MIC read as 400

---

Test system: Pichia kudriavzevii
Test: Antimicrobial activity against Candida krusei ATCC 6258 after 24 hrs by broth microdilution method
Assay type: functional
Conditions: ATCC 6258, 24 h
Please provide measured MIC for the entries that follow.
API: value field is a number in µg/mL; no unit string.

Recorded MIC for COc1ccc(C(=O)CSc2nc(C)c(C)n2Nc2ccccc2)cc1 on Pichia kudriavzevii was 800

Recorded MIC for Cc1nc(SCC(=O)c2cccc(Cl)c2)n(Nc2ccccc2)c1C on Pichia kudriavzevii was 200

Recorded MIC for COc1ccc(C(=O)CSc2nc(C)c(C)n2Nc2ccc(Cl)cc2)cc1OC on Pichia kudriavzevii was 400

Recorded MIC for Cc1nc(SCC(=O)c2ccc(Cl)c(Cl)c2)n(Nc2ccccc2)c1C on Pichia kudriavzevii was 200

Recorded MIC for CC(=O)N1CCN(c2ccc(OCC3COC(Cn4ccnc4)(c4ccc(Cl)cc4Cl)O3)cc2)CC1 (stereo not given) on Pichia kudriavzevii was 50

Recorded MIC for Cc1nc(SCC(=O)c2ccccc2)n(Nc2ccc(Cl)cc2)c1C on Pichia kudriavzevii was 800

Recorded MIC for Cc1nc(SCC(=O)c2ccc(F)cc2)n(Nc2ccccc2)c1C on Pichia kudriavzevii was 200

Recorded MIC for COc1ccc(Nn2c(SCC(=O)c3ccc(F)c(F)c3)nc(C)c2C)cc1 on Pichia kudriavzevii was 400

Recorded MIC for Cc1nc(SCC(=O)c2ccc(F)cc2)n(Nc2ccc(Cl)cc2)c1C on Pichia kudriavzevii was 800

Recorded MIC for COc1ccc(Nn2c(SCC(=O)c3ccc(F)cc3)nc(C)c2C)cc1 on Pichia kudriavzevii was 400

---

System: Nakaseomyces glabratus
Assay: Antimicrobial activity against Candida glabrata ATCC 90030 after 24 hrs by broth microdilution method
Assay type: functional
Conditions: ATCC 90030, 24 h
recordedEndpoint: MIC (µg/mL)
API: value field is a number in µg/mL; no unit string.

Recorded MIC for COc1ccc(C(=O)CSc2nc(C)c(C)n2Nc2ccc(C)cc2)cc1 on Nakaseomyces glabratus was 100

Recorded MIC for COc1ccc(Nn2c(SCC(=O)c3ccccc3)nc(C)c2C)cc1 on Nakaseomyces glabratus was 800

Recorded MIC for Cc1ccc(Nn2c(SCC(=O)c3ccc(F)cc3)nc(C)c2C)cc1 on Nakaseomyces glabratus was 1600

Recorded MIC for Cc1ccc(Nn2c(SCC(=O)c3ccc(Cl)cc3)nc(C)c2C)cc1 on Nakaseomyces glabratus was 400

Recorded MIC for Cc1ccc(Nn2c(SCC(=O)c3ccc(F)c(F)c3)nc(C)c2C)cc1 on Nakaseomyces glabratus was 400

Recorded MIC for COc1ccc(Nn2c(SCC(=O)c3ccc(OC)c(OC)c3)nc(C)c2C)cc1 on Nakaseomyces glabratus was 400

Recorded MIC for Cc1nc(SCC(=O)c2ccc(F)cc2)n(Nc2ccccc2)c1C on Nakaseomyces glabratus was 400

Recorded MIC for COc1ccc(C(=O)CSc2nc(C)c(C)n2Nc2ccc(OO)cc2)cc1 on Nakaseomyces glabratus was 800

Recorded MIC for Cc1nc(SCC(=O)c2ccc(Cl)c(Cl)c2)n(Nc2ccc(Cl)cc2)c1C on Nakaseomyces glabratus was 400
